System: HeLa
experiment: Primary qHTS to identify gynecologic anti-cancer compounds using libraries of approved drugs and bioactive compounds (AID 1345084); further: on the % scale 0 is the no-effect control and ±100 the full control effect; nearly all actives have a fitted effect of over 55% in size
condition.details: Gynecologic cancer cell panel viability, ATPlite luminescence, 48 h; series mostly up to 57.5 µM
Text: National Center for Advancing Translational Sciences [NCATS] Assay Overview: Chemotherapeutic drug responses vary from cancer to cancer and from patient to patient. […] ATPlite is a luminescence based assay reliant on the conversion of a luciferase substrate to light in the presence of ATP. As a cytotoxic compound will suppress growth and decrease the number of cells, the concentration of ATP will decrease, and less light signal will be detected in the well. […]
Records with an inconclusive call do not appear. Calls of active or inactive are those of the source. The call rests on the fitted dose curve; in most records, active means well fitted cell-killing curve with a large enough effect; inconclusive means small, poorly fitted or top-dose-only effect, or effect the other way; inactive means flat fitted curve, though single readings scatter.

>  <molecule>
C=C1CC2C3(C)C=CC(=O)OC(C)(C)C3CC(OC(C)=O)C2(C)C2C(=O)OC(C)C(=O)C12C (stereo not given)

>  <assay.system>
HeLa

>  <activity change, negative = cytotoxicity>
inactive

$$$$
>  <molecule>
C=CCC1=C[C@]2(OC)[C@H](C)[C@@H](c3ccc(OC)c(OC)c3)O[C@]2(OC)CC1=O

>  <assay.system>
HeLa

>  <activity change, negative = cytotoxicity>
inactive

$$$$
>  <molecule>
CC(O)C1NC(=O)C2CCCN2C1=O (stereo not given)

>  <assay.system>
HeLa

>  <activity change, negative = cytotoxicity>
inactive

$$$$
>  <molecule>
C=C[C@]1(C)C[C@@H](OC(=O)CSC2C[C@H]3CC[C@@H](C2)N3C)[C@]2(C)[C@H](C)CC[C@]3(CCC(=O)[C@H]32)[C@@H](C)[C@@H]1O (stereo not given in full)

>  <assay.system>
HeLa

>  <activity change, negative = cytotoxicity>
inactive

$$$$
>  <molecule>
C[C@@H]1C[C@@H](O)[C@@]23CO[C@]2(CO)C[C@@H](O)CC3[C@@]12CC(c1ccoc1)OC2=O (stereo not given in full)

>  <assay.system>
HeLa

>  <activity change, negative = cytotoxicity>
inactive

$$$$
>  <molecule>
C=C(C)[C@@H]1CC[C@]2(CO)CC[C@]3(C)[C@H](CC[C@@H]4[C@@]5(C)CC[C@H](O)C(C)(C)[C@@H]5CC[C@]43C)[C@@H]12

>  <assay.system>
HeLa

>  <activity change, negative = cytotoxicity>
inactive

$$$$
>  <molecule>
CC1OC(O[C@@H]2[C@H](O)[C@@H](OC3OC(CO)C(O)C(O)C3O)[C@H](OC(=O)[C@]34CCC(C)(C)C[C@H]3C3=CCC5[C@@]6(C)CC[C@H](O[C@@H]7O[C@H](C(=O)O)[C@@H](O)[C@H](O[C@@H]8OC[C@@H](O)[C@H](O)[C@H]8O)[C@H]7O[C@@H]7O[C@H](CO)[C@H](O)[C@H](O)[C@H]7O)[C@@](C)(C=O)C6CC[C@@]5(C)[C@]3(C)C[C@H]4O)O[C@@H]2C)C(O)C(O)C1OC1OCC(O)C(O)C1O (stereo not given in full)

>  <assay.system>
HeLa

>  <activity change, negative = cytotoxicity>
23.9% [at 6.55 µM] (inactive)

$$$$
>  <molecule>
CC(C)[C@](O)(c1ccc2cc(OC(F)F)c(OC(F)F)cc2c1)c1cn[nH]n1

>  <assay.system>
HeLa

>  <activity change, negative = cytotoxicity>
inactive

$$$$
>  <molecule>
C/C=C(\C)C(=O)OC[C@H]1O[C@@H](O[C@H]2[C@@H](O[C@H]3O[C@H](CO)[C@@H](O)[C@H](O)[C@H]3O[C@@H]3O[C@H](CO)[C@@H](O)[C@H](O)[C@H]3O)O[C@H](COC(=O)/C(C)=C/C)[C@@H](O)[C@@H]2O)[C@H](O)[C@@H](O)[C@@H]1O

>  <assay.system>
HeLa

>  <activity change, negative = cytotoxicity>
-3.59% [at 11.6 µM] (inactive)

$$$$
>  <molecule>
O=C(O)c1ccncc1Nc1nn(CCN2CCC(F)(F)CC2)c2ccc(F)cc12

>  <assay.system>
HeLa

>  <activity change, negative = cytotoxicity>
inactive

$$$$
>  <molecule>
C=C1C2CCC3CC2(CC(O)C2(O)C1CC(OC1OC(CO)C(O)C(O)C1O)C2(C)C)CC3(C)O (stereo not given)

>  <assay.system>
HeLa

>  <activity change, negative = cytotoxicity>
inactive

$$$$
>  <molecule>
C=C1CC2C3(C)C(O)CC(=O)C(C)(C)C3C(O)C(OC(C)=O)C2(C)C2C(=O)OC(C)(C(=O)OC)C(=O)C12C (stereo not given)

>  <assay.system>
HeLa

>  <activity change, negative = cytotoxicity>
inactive

$$$$
>  <molecule>
CC(=O)OC1(C)CC(O)C2(O)C=COC(OC3OC(CO)C(O)C(O)C3O)C12 (stereo not given)

>  <assay.system>
HeLa

>  <activity change, negative = cytotoxicity>
inactive

$$$$
>  <molecule>
NC(=O)[C@H](Cc1ccccc1)NC(=O)[C@H](CCCN=C(N)N)NC(=O)C12CC3CC(CC(C3)C1)C2

>  <assay.system>
HeLa

>  <activity change, negative = cytotoxicity>
9.3% [at 11.6 µM] (inactive)

$$$$
>  <molecule>
Cc1sc(C)c(C(=O)NC2(c3ccc(C(=O)O)cc3)CC2)c1Cc1ccc(C(F)(F)F)cc1

>  <assay.system>
HeLa

>  <activity change, negative = cytotoxicity>
inactive

$$$$

###

System: Zika virus NS2B-NS3 protease (linked construct)
experiment: Primary screen NINDS Rhodamine qHTS for Zika virus inhibitors (AID 1347160); further: nearly all actives have a fitted effect of over 55% in size
condition.details: purified NS2B-NS3 protease, Rhodamine110 substrate fluorescence; series mostly up to 33.1 µM
Records with an inconclusive call do not appear. The source made the active and inactive calls. The call rests on the fitted dose curve; in most records, active means well fitted inhibition curve with a large enough effect; inconclusive means small, poorly fitted or top-dose-only effect; inactive means no such curve, though single readings can be large or run the other way.
measured.metric: outcome

>  <compound>
CC(O)CCc1ccc(O[C@@H]2O[C@H](CO)[C@@H](O)[C@H](O)[C@H]2O)cc1 (stereo partly drawn)

>  <value.measured>
inactive

$$$$
>  <compound>
C[C@@H]1O[C@@H](O[C@@H]2\C=C/C=C\C=C/C=C\C[C@H](C)OC(=O)/C=C\[C@H]3O[C@@H]3C[C@H](O)C[C@]3(O)C[C@@H](O)[C@@H](C(=O)O)[C@H](C2)O3)[C@H](O)[C@H](N)[C@@H]1O

>  <value.measured>
inactive

$$$$
>  <compound>
Cc1ncc(Cl)cc1NCc1ccc(C(=O)NC(CC2CCCC2)C(=O)NC2CC2)s1 (stereo not drawn)

>  <value.measured>
inactive

$$$$
>  <compound>
C=C1C[C@H](O)[C@@H](O)[C@@]2(C)C1[C@@H](O)[C@H]1OC(=O)C3[C@@H](C)[C@@H](O)[C@H](O)C2[C@]31C (stereo partly drawn)

>  <value.measured>
inactive

$$$$
>  <compound>
CCc1cccc2c3c([nH]c12)[C@@](CC)(CC(=O)O)OCC3

>  <value.measured>
inactive

$$$$
>  <compound>
CN(C)CCC[C@]1(c2ccc(F)cc2)OCc2cc(C#N)ccc21

>  <value.measured>
inactive

$$$$
>  <compound>
C/C=C(\C)C(=O)OC1C(C)C2(O)C3C=C(C)C(=O)C3CC(CO)=CC2C2C(C)(C)C12OC(C)=O (stereo not drawn)

>  <value.measured>
inactive

$$$$
>  <compound>
CC(NC(=O)[C@H](Cc1ccccc1)NC(=O)OCc1ccccc1)C(=O)CF (stereo partly drawn)

>  <value.measured>
inactive

$$$$

###

System: Es-2
experiment: Primary qHTS to identify gynecologic anti-cancer compounds using libraries of approved drugs and bioactive compounds (AID 1345084); further: on the % scale 0 is the no-effect control and ±100 the full control effect; nearly all actives have a fitted effect of over 55% in size
condition.details: Gynecologic cancer cell panel viability, ATPlite luminescence, 48 h; series mostly up to 57.5 µM
Inconclusive results are not listed. Activity calls are given as the source filed them. Calls come from the whole dose curve; as a rule, active = well fitted cell-killing curve with a large enough effect; inconclusive = small, poorly fitted or top-dose-only effect, or effect the other way; inactive = flat fitted curve, though single readings scatter.
measured.metric: activity change, negative = cytotoxicity

>  <compound>
O=C(N[C@H](Cc1ccccc1)C(=O)O)c1sc2cc(F)ccc2c1Cl

>  <value.measured>
inactive

$$$$
>  <compound>
O=C(O)[C@H](Cc1ccccc1)Oc1ccc(-c2ccccc2)cc1

>  <value.measured>
inactive

$$$$
>  <compound>
CC(C)=C1CC2[C@](C)(CC[C@@H](OC(=O)C3(C)OC3C)[C@@]2(C)O)CC1=O (stereo partly specified)

>  <value.measured>
inactive

$$$$
>  <compound>
C=C1CC[C@H]2[C@@](C)(CCC(OC3OC(CO)C(O)C(O)C3O)[C@@]2(C)CO)C1C(=O)CC1=CCOC1=O (stereo partly specified)

>  <value.measured>
inactive

$$$$
>  <compound>
Nc1ncnc2c1ncn2[C@H]1O[C@@H](C(=O)N2CCN(CC(=O)Nc3cccc4c3CNC4=O)CC2)[C@H](O)[C@@H]1O

>  <value.measured>
inactive

$$$$
>  <compound>
CC[C@@H]1[C@H]2CCCCN3C(=O)C[C@H]([C@@H]4[C@H]1OC(=O)[C@H]4C)[C@@H]23

>  <value.measured>
inactive

$$$$
>  <compound>
CC12CC34CC(O)C5C(CO)(CO)CC(=O)CC5(C)C3CC1C2C4 (stereo unspecified)

>  <value.measured>
inactive

$$$$
>  <compound>
CC1(C)CC[C@]2(C(=O)O[C@@H]3O[C@H](CO[C@@H]4O[C@H](CO)[C@@H](O)[C@H](O)[C@H]4O)[C@@H](O)[C@H](O[C@@H]4O[C@H](CO)[C@@H](O)[C@H](O)[C@H]4O)[C@H]3O)[C@H](O)C[C@]3(C)C(=CCC4[C@@]5(C)CC[C@H](O[C@@H]6OC[C@@H](O)[C@H](O)[C@H]6O)[C@@](C)(C(=O)O)C5CC[C@]43C)[C@@H]2C1 (stereo partly specified)

>  <value.measured>
1.6% [at 11.6 µM] (inactive)

$$$$
>  <compound>
C[C@@H](NC(=O)c1cc(C(=O)N[C@@H](Cc2ccccc2)[C@H](O)CNC2CC2)cc(N(C)S(C)(=O)=O)c1)c1ccccc1

>  <value.measured>
inactive

$$$$
>  <compound>
CCC(C)/C=C(C)/C=C/C1=CC2=C(Cl)C(=O)C(C)(OC(C)=O)C(=O)C2=CN1CCCCC(N)C(=O)O (stereo unspecified)

>  <value.measured>
inactive

$$$$
>  <compound>
C=C(C)C1CCC2(C(=O)OC3OC(COC4OC(CO)C(O)C(O)C4O)C(OC4OC(C)C(O)C(O)C4O)C(O)C3O)CCC3(C(=O)O)C(CCC4C5(C)CCC(=O)C(C)(C)C5CCC43C)C12 (stereo unspecified)

>  <value.measured>
-14% [at 11.6 µM] (inactive)

$$$$
>  <compound>
C[C@@H]1C(=O)O[C@H]2[C@H]1CC[C@@]1(C)C(=O)C=C[C@@](C)(O)[C@H]21

>  <value.measured>
inactive

$$$$
>  <compound>
Nc1nc2c(nc(Sc3ccc(Cl)cc3)n2[C@@H]2O[C@@H]3COP(=O)(O)O[C@H]3[C@H]2O)c(=O)[nH]1

>  <value.measured>
inactive

$$$$
>  <compound>
C=CCC/C=C/C#CCCCCCCCC[C@H]1C(=O)O[C@H](C)[C@@H]1O

>  <value.measured>
inactive

$$$$
>  <compound>
COC(=O)C1=COC(OC2OC(CO)C(O)C(O)C2O)C2C(C)CC(=O)C12O (stereo unspecified)

>  <value.measured>
inactive

$$$$
>  <compound>
C[C@@H]1[C@H](O)[C@@H]2OC(=O)C3=C2[C@H](CCC3)[C@@]12C[C@@H](c1ccoc1)OC2=O

>  <value.measured>
inactive

$$$$
>  <compound>
O=C(O)CC1(O)C(=O)Nc2ccccc21 (stereo unspecified)

>  <value.measured>
inactive

$$$$
>  <compound>
C=C1CCC2C(C)(C(=O)O)CCCC2(C)C1CC/C(C)=C\CO (stereo unspecified)

>  <value.measured>
inactive

$$$$
>  <compound>
NC[C@@H]1O[C@@H](O[C@@H]2[C@@H](O[C@@H]3O[C@H](CO)[C@@H](O)[C@H]3O)[C@H](O)[C@@H](N)C[C@H]2N)[C@@H](N)[C@H](O)[C@H]1O

>  <value.measured>
6.5% [at 11.6 µM] (inactive)

$$$$
>  <compound>
COC(=O)C(CC1(O)c2ccccc2N2C(=O)C(CC(C)C)NC21)n1cnc2ccccc2c1=O (stereo unspecified)

>  <value.measured>
inactive

$$$$
>  <compound>
C/C=C(/C)C(=O)OC1CC(C)(C)CC2C3=CCC4C5(C)CCC(OC6OC(C)C(OC7OC(C(=O)O)C(O)C(OC8OC(CO)C(O)C(O)C8OC8OC(CO)C(O)C(O)C8O)C7O)C(O)C6O)C(C)(C)C5CCC4(C)C3(C)C(OC(=O)/C=C/C=C/C=C/CCC)C(OC(C)=O)C12CO (stereo unspecified)

>  <value.measured>
13.9% [at 6.55 µM] (inactive)

$$$$
>  <compound>
C[C@@H]1O[C@@H](O[C@H]2[C@H](O)[C@@H](O[C@@H]3O[C@H](CO)[C@H](O)[C@H](O)[C@H]3O)[C@H](O[C@H]3CC[C@@]4(C)C(CC[C@]5(C)C4CC=C4[C@@H]6CC(C)(C)CC[C@]6(C(=O)O[C@@H]6O[C@H](CO)[C@@H](O)[C@H](O)[C@H]6O)CC[C@]45C)C3(C)C)O[C@@H]2C(=O)O)[C@H](O)[C@H](O)[C@H]1O (stereo partly specified)

>  <value.measured>
2.19% [at 11.6 µM] (inactive)

$$$$
>  <compound>
CC(C)(O)/C=C/C(=O)[C@](C)(O)[C@H]1[C@H](O)C[C@@]2(C)[C@@H]3CC=C4[C@@H](C=C(O[C@@H]5O[C@H](CO)[C@@H](O)[C@H](O)[C@H]5O)C(=O)C4(C)C)[C@]3(C)C(=O)C[C@]12C

>  <value.measured>
inactive

$$$$
>  <compound>
CC1(C)CC[C@]2(C(=O)O[C@@H]3O[C@H](CO)[C@@H](O)[C@H](O)[C@H]3O)CC[C@]3(C)C(=CCC4[C@@]5(C)CC[C@H](OC6OC(C(=O)O)C(OC7OC(CO)C(O)C(O)C7O)C(O)C6O)C(C)(C)C5CC[C@]43C)C2C1 (stereo partly specified)

>  <value.measured>
1.85% [at 11.6 µM] (inactive)

$$$$
>  <compound>
C=C(CCO)C(=O)OCC1OCC(OC(=O)C(=C)CCO[C@@H]2O[C@H](CO)[C@@H](O)[C@H](O)[C@H]2O)C(O)C1O (stereo partly specified)

>  <value.measured>
inactive

$$$$
>  <compound>
C=CC1(C)CC2CCC3C(C)(C(=O)O)CCCC3(C)C2=CC1=O (stereo unspecified)

>  <value.measured>
inactive

$$$$
